This collection of values is drawn from patent US20220242856A1.

system.under.test: human CB2 receptor (Homo sapiens, UniProt P34972)
Sequence (P34972 whole entry): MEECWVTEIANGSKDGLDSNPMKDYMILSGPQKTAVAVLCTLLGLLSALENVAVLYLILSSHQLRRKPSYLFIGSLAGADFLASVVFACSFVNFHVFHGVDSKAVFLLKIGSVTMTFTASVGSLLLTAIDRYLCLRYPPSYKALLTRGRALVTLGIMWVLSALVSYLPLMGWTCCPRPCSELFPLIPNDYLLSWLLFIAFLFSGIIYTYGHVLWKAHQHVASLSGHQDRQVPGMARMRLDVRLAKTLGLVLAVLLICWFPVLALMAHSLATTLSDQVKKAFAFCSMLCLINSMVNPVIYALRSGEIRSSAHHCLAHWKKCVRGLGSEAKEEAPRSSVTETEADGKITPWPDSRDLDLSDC
Property: IC50; scope: individual compounds

Examples with answers:
compound	IC50
CCCCCc1cc2c(c(O)c1-c1cc3ccccc3s1)[C@@H]1C=C(C)CC[C@H]1C(C)(C)O2 [Compound 36b]	100 to 490 nM
CCCCCc1cc2c(c(O)c1-c1ccsc1)[C@@H]1C=C(C)CC[C@H]1C(C)(C)O2 [Compound 17b]	< 100 nM
CCCCCc1cc2c(c(O)c1-c1ccnn1C)[C@@H]1C=C(C)CC[C@H]1C(C)(C)O2 [Compound 33b]	100 to 490 nM

Field: next compound
# IC50 (compound: CCCCCc1cc2c(c(O)c1-c1cncs1)[C@@H]1C=C(C)CC[C@H]1C(C)(C)O2 [Compound 18b] ) is > 1000 nM

---

Consider the following IC50 values measured on human CB2 receptor (Homo sapiens, UniProt P34972).

Examples with answers:
molecule	val
CCCCCc1cc2c(c(O)c1-c1cn[nH]c1)[C@@H]1C=C(C)CC[C@H]1C(C)(C)O2 [Compound 35b]	500 to 990 nM
CCCCCc1cc2c(c(O)c1-c1cccnc1)[C@@H]1C=C(C)CC[C@H]1C(C)(C)O2 [Compound 12b]	500 to 990 nM
CCCCCc1cc2c(c(O)c1-c1ccncc1)[C@@H]1C=C(C)CC[C@H]1C(C)(C)O2 [Compound 14b]	100 to 490 nM

# IC50 (molecule: CCCCCc1cc2c(c(O)c1-c1ccco1)[C@@H]1C=C(C)CC[C@H]1C(C)(C)O2 [Compound 15b] ) is < 100 nM

# IC50 (molecule: CCCCCc1cc2c(c(O)c1-c1cc3ccccc3o1)[C@@H]1C=C(C)CC[C@H]1C(C)(C)O2 [Compound 34b] ) is 100 to 490 nM

# IC50 (molecule: CCCCCc1cc2c(c(O)c1-c1cncnc1)[C@@H]1C=C(C)CC[C@H]1C(C)(C)O2 [Compound 13b] ) is 500 to 990 nM
